Reported inhibition at 0.01 µM values are given for each entry in this list.
# Assay target: UniProt P27338
# Sequence (P27338 whole entry): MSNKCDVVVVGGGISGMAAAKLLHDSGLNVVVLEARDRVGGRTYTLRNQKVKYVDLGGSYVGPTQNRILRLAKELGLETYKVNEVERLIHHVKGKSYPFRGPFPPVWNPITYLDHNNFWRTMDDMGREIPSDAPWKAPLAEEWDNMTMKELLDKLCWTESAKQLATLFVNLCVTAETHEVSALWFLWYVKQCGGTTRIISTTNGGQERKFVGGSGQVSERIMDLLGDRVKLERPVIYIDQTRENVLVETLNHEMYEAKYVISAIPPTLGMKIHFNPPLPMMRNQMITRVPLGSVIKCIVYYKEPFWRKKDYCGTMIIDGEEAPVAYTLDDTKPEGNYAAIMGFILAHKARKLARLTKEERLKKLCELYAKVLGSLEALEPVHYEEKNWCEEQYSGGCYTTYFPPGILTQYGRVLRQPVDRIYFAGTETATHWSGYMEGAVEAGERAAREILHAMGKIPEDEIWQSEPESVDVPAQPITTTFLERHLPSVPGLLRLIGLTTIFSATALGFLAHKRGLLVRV
# Protocol notes: Inhibitory effects on the activity of MAO-B (Amplex Red fluorescence, benzylamine substrate)
# Type: biochemical
# Assay setup: treatment concentration 10 nM; read-out: Inhibitory effects (%) on the activity of MAO-B
Provide only the numeric value, understood in %.

// below: answered compounds
input_smiles=CNC(=O)OCc1cc(-c2ccc(OCc3ccccc3)cc2)no1 measured_metric="inhibition at 0.01 µM" result_number=82.8
input_smiles=NC(=O)OCc1cc(-c2ccc(NCc3cccc(Cl)c3)cc2)no1 measured_metric="inhibition at 0.01 µM" result_number=78.6
input_smiles=c1ccc(COc2ccc(-c3cc(CN4CCCC4)on3)cc2)cc1 measured_metric="inhibition at 0.01 µM" result_number=79

Consider the additional compound presented here.
For O=C(OCc1cc(-c2ccc(OCc3ccccc3)cc2)no1)N1CCOCC1 on UniProt P27338, measured inhibition at 0.01 µM was 45.3

Values from patent US8828992B2
